test: Cytotoxicity against HEL; assay type: cell-based; conditions: human, HEL cells
Measured metric: CC50

> print(dat)
                                        mol       result
1   CSc1ccc(/C=N/NC(=O)COc2cccc3ccccc23)cc1  > 100 µg/mL
2  O=C(COc1cccc2ccccc12)N/N=C/c1c[nH]c2ccccc12  > 100 µg/mL

Let us examine a further case.
Problem: Give recorded CC50. `C/C(=N\NC(=O)COc1cccc2ccccc12)c1ccc([N+](=O)[O-])cc1`
Solution: > 100 µg/mL

---

assay: Cytotoxicity against HEL assessed as minimum concentration required to cause morphological changes; format: cell-based; details: human, HEL cells
Measured metric: MCC

> print(dat)
                                        mol  measured.metric       result
1  COc1ccc(/C=N/NC(=O)COc2cccc3ccccc23)cc1OC              MCC   ≥ 20 µg/mL
2   CSc1ccc(/C=N/NC(=O)COc2cccc3ccccc23)cc1              MCC  ≥ 100 µg/mL

Problem: Give recorded MCC. `Nc1nc2c(ncn2COC(CO)CO)c(=O)[nH]1`
Solution: > 100 µg/mL

Problem: Give recorded MCC. `C/C(=N\NC(=O)COc1cccc2ccccc12)c1ccc(O)cc1O`
Solution: > 100 µg/mL

---

assay: Cytotoxicity against HEL; type: cell-based; details: human, HEL cells
Below, each of the compounds is paired with its reported CC50 value.
// units = µg/mL; emit number, no label

For orientation, consider the following solved cases.
> print(dat)
                                  compound  measured.metric  unit.spec  result
1   O=C(COc1cccc2ccccc12)N/N=C/c1ccc(O)cc1             CC50      µg/mL    60.6
2  O=C(COc1cccc2ccccc12)N/N=C/c1cccc(Cl)c1             CC50      µg/mL    58.6

Let us examine a further case.
Problem: Give recorded CC50. Nc1nc2c(ncn2COC(CO)CO)c(=O)[nH]1 [GANCICLOVIR]
Solution: 60.5

---

assay: Cytotoxicity against HEL assessed as minimum concentration required to cause morphological changes; assay type: cell-based; conditions: human, HEL cells
Measured metric: MCC

> print(dat)
                                        mol      result
1  O=C(COc1cccc2ccccc12)N/N=C/c1cccc([N+](=O)[O-])c1  ≥ 20 µg/mL
2  C/C(=N\NC(=O)COc1cccc2ccccc12)c1ccc(Cl)cc1   ≥ 4 µg/mL

Let us examine a further case.
Problem: Give recorded MCC. `COc1ccc(OC)c(/C=N/NC(=O)COc2cccc3ccccc23)c1`
Solution: ≥ 20 µg/mL
